Molecular target: human CYP2C9 (Homo sapiens, UniProt P11712)
Sequence (P11712 whole entry): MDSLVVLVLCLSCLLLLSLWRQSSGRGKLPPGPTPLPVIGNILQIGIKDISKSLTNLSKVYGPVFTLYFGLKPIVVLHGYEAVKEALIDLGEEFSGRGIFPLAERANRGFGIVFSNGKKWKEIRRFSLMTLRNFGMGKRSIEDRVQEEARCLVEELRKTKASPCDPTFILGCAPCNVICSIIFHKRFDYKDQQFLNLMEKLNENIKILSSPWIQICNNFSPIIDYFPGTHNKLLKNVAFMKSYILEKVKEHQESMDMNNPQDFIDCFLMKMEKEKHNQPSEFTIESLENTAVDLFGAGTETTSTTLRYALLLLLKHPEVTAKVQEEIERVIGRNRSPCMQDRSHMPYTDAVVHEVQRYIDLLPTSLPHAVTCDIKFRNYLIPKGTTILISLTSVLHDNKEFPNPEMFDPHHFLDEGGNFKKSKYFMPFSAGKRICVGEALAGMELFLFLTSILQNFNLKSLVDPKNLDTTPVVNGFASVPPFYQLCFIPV
ENDPOINT: CYP2C9 AC50 (half-maximal activity concentration)

Below, each entry is followed by its recorded CYP2C9 AC50 (half-maximal activity concentration) result.
QUERY: Determine its reported CYP2C9 AC50 (half-maximal activity concentration): COCC(=O)N(c1c(C)cccc1C)[C@H](C)C(=O)OC [Metalaxyl-M]
RESULT: Inactive

QUERY: Look up and report measured CYP2C9 AC50 (half-maximal activity concentration) for this entry: O=C1OC(=O)c2c(Cl)c(Cl)c(Cl)c(Cl)c21 [Tetrachlorophthalic anhydride]
RESULT: Inactive

QUERY: Input C=Cc1ccc(S(=O)(=O)[O-])cc1.[Na+] [Sodium 4-vinylbenzenesulfonate] , output reported CYP2C9 AC50 (half-maximal activity concentration).
RESULT: Inactive

QUERY: State its CYP2C9 AC50 (half-maximal activity concentration): CCCCC(CC)C(=O)[O-].CCCCC(CC)C(=O)[O-].[Ba+2] (centres unmarked) [Barium bis(2-ethylhexanoate)]
RESULT: Inactive

QUERY: Give the measured CYP2C9 AC50 (half-maximal activity concentration) for O=[N+]([O-])c1c(Cl)c(Cl)c(Cl)c(Cl)c1Cl
RESULT: Inconclusive inhibitor

QUERY: Supply reported CYP2C9 AC50 (half-maximal activity concentration) belonging to this molecule: O=C(CCC1CCN(Cc2ccccc2)CC1)c1ccc2c(c1)NCCCC2.O=C(O)/C=C/C(=O)O [Zanapezil fumerate]
RESULT: Inconclusive inhibitor

Query molecule follows.
QUERY: Find the measured CYP2C9 AC50 (half-maximal activity concentration) of C=C(C)C(=O)OCCCCCCCCCCOC(=O)C(=C)C [1,10-Decanediol dimethacrylate] and report it.
RESULT: Inconclusive inhibitor
